Entries and their measured pIC50 follow.
System: Z-138 cells
Assay: Inhibitory activity on tumor cell proliferation (Cell-Titer Glo, 8 days)
Format: cell-based
Details: Homo sapiens, 192 h, read-out: Inhibition of cell proliferation Z-138 IC50
Structures can show the parent of a compound that is named as a salt.
Reminder that pIC50 is minus the log10 of a molar concentration.

Some molecules with known pIC50 results, for comparison:
COC1CC2CCC(C1)N2C(=O)c1ccc2c(c1)N(C)CCN(C[C@@H](O)[C@@H]1Cc3ccccc3CN1)C2=O.Cl (some centres unmarked) [Compound 005, hydrochloride] ... 8.37
COC1CC2CCC(C1)N2C(=O)c1ccc2c(c1)OCCN(C[C@@H](O)[C@@H]1Cc3ccccc3CN1)C2=O (some centres unmarked) ... 8.22
CCN1CCN(C[C@@H](O)[C@@H]2Cc3ccccc3CN2)C(=O)c2ccc(C(=O)N3C4CCCC3COC4)cc21 [Compound 020, hydrochloride] ... 8.43
CCN1CCN(C[C@@H](O)[C@@H]2Cc3ccccc3CN2)C(=O)c2ccc(C(=O)N3C4CCC3CC(O)C4)cc21 (some centres unmarked) [Compound 022, hydrochloride] ... 7.83

--- query ---
## Task I have this molecule here, CCN1CCN(C[C@@H](O)[C@@H]2Cc3ccccc3CN2)C(=O)c2ccc(C(=O)N3C4CCC3CC(OC)C4)cc21.Cl (some centres unmarked) [Compound 004, hydrochloride] , and I need its recorded pIC50.
## Result 8.73
